- Test system: Ps. aeruginosa IF03445
- protocolText: in vitro antibacterial activity, agar plate dilution method (MIC)
- Format: cell-based, Pseudomonas aeruginosa
- conditionLabel: Pseudomonas aeruginosa, 16 h; Ps. aeruginosa IF03445; 10^6 CFU/ml; read-out: Minimum Inhibitory Concentration (MIC)
metricName: MIC (µg/mL)
Write the answer as a number in µg/mL, unit excluded.

- CC(C)(O/N=C(\C(=O)N[C@@H]1C(=O)N2C(C(=O)O)=C(CSc3nc(-c4ccc(O)cc4)cs3)CS[C@H]12)c1csc(N)n1)C(=O)O [compound 12, reference compound]: 50

For reference, reported MIC for CC(C)(O/N=C(\C(=O)N[C@@H]1C(=O)N2C(C(=O)O)=C(CSc3ncc(-c4ccccc4)o3)CS[C@H]12)c1csc(N)n1)C(=O)O [compound 22, reference compound] stands at 50

For reference, reported MIC for "CCO/N=C(\C(=O)N[C@@H]1C(=O)N2C(C(=O)O)=C(CSc3nnc(-c4ccc(OC(C)=O)c(OC(C)=O)c4)o3)CS[C@H]12)c1csc(N)n1" stands at 0.2

###

- Test system: K. oxytoca GN10650
- protocolText: in vitro antibacterial activity, agar plate dilution method (MIC)
- Type: cell-based
- conditionLabel: Klebsiella oxytoca, GN10650, 16 h, read-out: Minimum Inhibitory Concentration (MIC), *K. oxytoca GN10650, lactamase-producing strain; 10^6 CFU/ml
Friendly reminder: MIC below 0.4 µg/mL is 1 (yes), at or above is 0 (no).

Would you please look over these solved cases?
* CON=C(C(=O)NC1C(=O)N2C(C(=O)O)=C(CSc3nc(-c4ccc(O)c(O)c4)c(CC(=O)O)s3)CSC12)c1csc(N)n1 (stereo not drawn) | 0 (no)
* CCO/N=C(\C(=O)N[C@@H]1C(=O)N2C(C(=O)O)=C(CSc3nnc(-c4ccc(O)c(O)c4)o3)CS[C@H]12)c1csc(N)n1 | 0 (no)
* CC(C)(ON=C(C(=O)NC1C(=O)N2C(C(=O)O)=C(CSc3nc(C(=O)O)c(-c4ccc(O)c(O)c4)s3)CSC12)c1csc(N)n1)C(=O)O (stereo not drawn) | 1 (yes)

Check if MIC falls below 0.4 µg/mL for CO/N=C(\C(=O)N[C@@H]1C(=O)N2C(C(=O)O)=C(CSc3ncc(-c4ccccc4)o3)CS[C@H]12)c1csc(N)n1 [compound 21, reference compound] .
0 (no)

Check if MIC falls below 0.4 µg/mL for "C#CCO/N=C(\C(=O)N[C@@H]1C(=O)N2C(C(=O)O)=C(CSc3nnc(-c4ccc(O)c(O)c4)s3)CS[C@H]12)c1csc(N)n1" .
0 (no)

Check if MIC falls below 0.4 µg/mL for "Nc1nc(/C(=N/OC2(C(=O)O)CC2)C(=O)N[C@@H]2C(=O)N3C(C(=O)O)=C(CSc4ncc(-c5ccc(O)c(O)c5)o4)CS[C@H]23)cs1" .
1 (yes)

Check if MIC falls below 0.4 µg/mL for CC(C)(O/N=C(\C(=O)N[C@@H]1C(=O)N2C(C(=O)O)=C(CSc3nc(-c4ccc(O)cc4)c(CC(=O)O)s3)CS[C@H]12)c1csc(N)n1)C(=O)O [compound 19, reference compound] .
0 (no)

Check if MIC falls below 0.4 µg/mL for Nc1nc(/C(=N/OC(C(=O)O)c2ccccc2)C(=O)N[C@@H]2C(=O)N3C(C(=O)O)=C(CSc4nnc(-c5ccc(O)c(O)c5)o4)CS[C@H]23)cs1 (single isomer, unassigned) [Example 24 DA] .
1 (yes)

Check if MIC falls below 0.4 µg/mL for "CCON=C(C(=O)N[C@@H]1C(=O)N2C(C(=O)[O-])=C(CSc3nc(-c4ccc(O)c(O)c4)cs3)CS[C@H]12)c1csc(N)n1.[Na+]" .
0 (no)

Check if MIC falls below 0.4 µg/mL for Nc1nc(/C(=N/OC(C(=O)O)c2ccc(O)c(O)c2)C(=O)N[C@@H]2C(=O)N3C(C(=O)O)=C(CSc4nnc(-c5ccc(O)c(O)c5)o4)CS[C@H]23)cs1 (stereo partly drawn) .
1 (yes)

###

- Test system: K. oxytoca GN10650
- protocolText: in vitro antibacterial activity, agar plate dilution method (MIC)
- Type: cell-based
- conditionLabel: Klebsiella oxytoca, GN10650, 16 h, read-out: Minimum Inhibitory Concentration (MIC), *K. oxytoca GN10650, lactamase-producing strain; 10^6 CFU/ml
MIC reference

Field: example entries. Status: answers known.
* CO/N=C(\C(=O)N[C@@H]1C(=O)N2C(C(=O)O)=C(CSc3nc(-c4ccccc4)cs3)CS[C@H]12)c1csc(N)n1 [compound 9, reference compound] | 3.12 µg/mL
* C=CCO/N=C(\C(=O)N[C@@H]1C(=O)N2C(C(=O)O)=C(CSc3nnc(-c4ccc(O)c(O)c4)s3)CS[C@H]12)c1csc(N)n1 | 1.56 µg/mL
* CC(C)(O/N=C(\C(=O)N[C@@H]1C(=O)N2C(C(=O)O)=C(CSc3nc(C(=O)O)c(-c4ccccc4)s3)CS[C@H]12)c1csc(N)n1)C(=O)O [compound 14, reference compound] | 1.56 µg/mL

Moving on to the next molecule.
For reference, reported MIC for CC(C)(O/N=C(\C(=O)N[C@@H]1C(=O)N2C(C(=O)O)=C(CSc3nc(-c4ccccc4)c(CC(=O)O)s3)CS[C@H]12)c1csc(N)n1)C(=O)O [compound 16, reference compound] stands at 3.12 µg/mL

###

- Tested on: S. aureus 209P NIHJ-JC1
- protocolText: in vitro antibacterial activity, agar plate dilution method (MIC)
- Format: cell-based
- conditionLabel: Staphylococcus aureus, 16 h, read-out: Minimum Inhibitory Concentration (MIC), S. aureus 209P NIHJ-JC1; 10^6 CFU/ml, 37° C., 16 hours
metricName: MIC (µg/mL)
Write the answer as a number in µg/mL, unit excluded.

Field: example entries. Status: answers known.
* CC(C)ON=C(C(=O)NC1C(=O)N2C(C(=O)O)=C(CSc3nc(-c4ccc(O)c(O)c4)cs3)CSC12)c1csc(N)n1 (stereo not drawn) | 1.56
* CCO/N=C(\C(=O)N[C@@H]1C(=O)N2C(C(=O)O)=C(CSc3nnc(-c4ccc(OC(C)=O)c(OC(C)=O)c4)o3)CS[C@H]12)c1csc(N)n1 | 1.56
* CON=C(C(=O)NC1C(=O)N2C(C(=O)O)=C(CSc3nc(-c4ccc(O)c(O)c4)cs3)CSC12)c1csc(N)n1 (stereo not drawn) | 1.56
* C=CCO/N=C(\C(=O)N[C@@H]1C(=O)N2C(C(=O)O)=C(CSc3nnc(-c4ccc(O)c(O)c4)s3)CS[C@H]12)c1csc(N)n1 | 0.78
* CC(C)(O/N=C(\C(=O)N[C@@H]1C(=O)N2C(C(=O)O)=C(CSc3nnc(-c4ccccc4)o3)CS[C@H]12)c1csc(N)n1)C(=O)O [compound 3, reference compound] | 6.25

Moving on to the next compound.
For reference, reported MIC for Nc1nc(C(=NOC(C(=O)O)c2ccc(O)c(O)c2)C(=O)NC2C(=O)N3C(C(=O)O)=C(CSc4nnc(-c5ccc(O)c(O)c5)s4)CSC23)cs1 (single isomer, unassigned) stands at 0.78

###

- Tested on: P. vulgaris No. 33
- protocolText: in vitro antibacterial activity, agar plate dilution method (MIC)
- Assay type: cell-based
- conditionLabel: Proteus vulgaris, NO.33, 16 h, read-out: Minimum Inhibitory Concentration (MIC), *P. vulgaris No. 33, lactamase-producing strain; 10^6 CFU/ml
Counter-ions that a name gives are not always drawn.
MIC reference
Write the answer as a number in µg/mL, unit excluded.

• CO/N=C(\C(=O)N[C@@H]1C(=O)N2C(C(=O)O)=C(CSc3nc(-c4ccc(O)cc4)c(CC(=O)O)s3)CS[C@H]12)c1csc(N)n1 [compound 17, reference compound] = 0.1
• Nc1nc(C(=NOC2(C(=O)O)CC2)C(=O)NC2C(=O)N3C(C(=O)O)=C(CSc4nc(-c5ccc(O)c(O)c5)cs4)CSC23)cs1 (stereo not shown) [Ex. 45] = 0.025
• C#CCO/N=C(\C(=O)N[C@@H]1C(=O)N2C(C(=O)O)=C(CSc3nnc(-c4ccc(O)c(O)c4)s3)CS[C@H]12)c1csc(N)n1 [Ex. 31] = 0.025
• CC(C)(O/N=C(\C(=O)N[C@@H]1C(=O)N2C(C(=O)O)=C(CSc3nc(-c4ccccc4)c(CC(=O)O)s3)CS[C@H]12)c1csc(N)n1)C(=O)O [compound 16, reference compound] = 0.2
• C=CCON=C(C(=O)NC1C(=O)N2C(C(=O)O)=C(CSc3nc(C(=O)O)c(-c4ccc(O)c(O)c4)s3)CSC12)c1csc(N)n1 (stereo not shown) [Ex. 55] = 0.025

For reference, reported MIC for CC(C)(O/N=C(\C(=O)N[C@@H]1C(=O)N2C(C(=O)O)=C(CSc3nc(-c4ccc(O)cc4)c(CC(=O)O)s3)CS[C@H]12)c1csc(N)n1)C(=O)O [compound 19, reference compound] stands at 0.05

For reference, reported MIC for CO/N=C(\C(=O)N[C@@H]1C(=O)N2C(C(=O)O)=C(CSc3nc(-c4ccc(OC)c(OC)c4)cs3)CS[C@H]12)c1csc(N)n1 [compound 13, trifluoroacetate, reference compound] stands at 3.12
